Each entry below lists one item and its recorded concentration at 6 h value.
# Test Protocol: Plasma pharmacokinetics after single oral dose of Δ8-THCV in MCT oil (LC-MS/MS, non-compartmental analysis)
# Type: in vivo, human
# Condition Info: human, plasma, oral, 12.5 mg, 6 h; 12.5 mg Δ8-THCV dose; Median (IQ Range)
Dear colleague, please return just the value in ng/mL, with no unit written.

Below: 5 compounds and their reported concentration at 6 h.
{"Compound": "CCCc1cc(O)c2c(c1)OC(C)(C)[C@@H]1CCC(C)=C[C@@H]21 [Δ9-THCV, Δ9-tetrahydrocannabivarin]", "Unit Text": "ng/mL", "concentration at 6 h": 0}
{"Compound": "CCCc1cc(O)c2c(c1)OC(C)(C)[C@@H]1CCC(C(=O)O)=C[C@@H]21", "Unit Text": "ng/mL", "concentration at 6 h": 1.3}
{"Compound": "CCCc1cc(O)c2c(c1)OC(C)(C)[C@@H]1CC=C(C(=O)O)C[C@@H]21", "Unit Text": "ng/mL", "concentration at 6 h": 53.3}
{"Compound": "CCCCCc1cc(O)c2c(c1)OC(C)(C)[C@@H]1CC=C(C(=O)O)CC21 (single isomer, unassigned; (+)) [Δ8-THC-COOH, (+)-11-nor-Δ8-THC-9-carboxylic acid]", "Unit Text": "ng/mL", "concentration at 6 h": 0}
{"Compound": "CCCc1cc(O)c2c(c1)OC(C)(C)[C@@H]1CC=C(C)C[C@@H]21 [Δ8-THCV, Δ8-tetrahydrocannabivarin]", "Unit Text": "ng/mL", "concentration at 6 h": 0}

Now look at this one.
Q) Which concentration at 6 h is reported for this compound? CCCc1cc(O)c2c(c1)OC(C)(C)[C@@H]1CC=C(CO)C[C@@H]21 (racemic) [11-OH-Δ8-THCV, (±)-11-hydroxy-Δ8-THCV]
A) 0

---

# Test Protocol: Plasma pharmacokinetics after single oral dose of Δ8-THCV in MCT oil (LC-MS/MS, non-compartmental analysis)
# Assay type: in vivo, human
# Condition Info: human, plasma, oral, 200 mg, 6 h; 200 mg Δ8-THCV dose; Mean (SD, %CV)
Value Type: log10(concentration at 6 h) (log10 of the value in ng/mL)
Each number you see is log10 of concentration at 6 h, and the unit inside the log is ng/mL.

Below: 2 compounds and their reported log10(concentration at 6 h).
{"Compound": "CCCc1cc(O)c2c(c1)OC(C)(C)[C@@H]1CCC(C(=O)O)=C[C@@H]21", "Value Type": "log10(concentration at 6 h)", "Recorded Value": 1.51}
{"Compound": "CCCc1cc(O)c2c(c1)OC(C)(C)[C@@H]1CCC(C)=C[C@@H]21 [Δ9-THCV, Δ9-tetrahydrocannabivarin]", "Value Type": "log10(concentration at 6 h)", "Recorded Value": -0.15}

Q) Which log10(concentration at 6 h) is reported for this compound? CCCc1cc(O)c2c(c1)OC(C)(C)[C@@H]1CC=C(CO)C[C@@H]21 (racemic) [11-OH-Δ8-THCV, (±)-11-hydroxy-Δ8-THCV]
A) 0.66

Q) Proceed to CCCCCc1cc(O)c2c(c1)OC(C)(C)[C@@H]1CC=C(C(=O)O)CC21 (single isomer, unassigned; (+)) [Δ8-THC-COOH, (+)-11-nor-Δ8-THC-9-carboxylic acid]
A) 0.26

Q) Proceed to "CCCc1cc(O)c2c(c1)OC(C)(C)[C@@H]1CC=C(C(=O)O)C[C@@H]21"
A) 3.07

Q) Proceed to CCCc1cc(O)c2c(c1)OC(C)(C)[C@@H]1CC=C(C)C[C@@H]21 [Δ8-THCV, Δ8-tetrahydrocannabivarin]
A) 1.42
